Reported protein stability index by item:
# METHOD_NOTES: protein stability index of a GFP-peptide fusion (yeast GPS) (PSI 1-4); higher = more stable; sorted into four equal gates, so the index is relative within each strain
# TEST_CONDITIONS: pdr5∆
READOUT_TYPE: protein stability index

biosequence="KVVGPRGTLTKNLKHID [RPL9A]" readout_number=2.98
biosequence="TNSPQISVTRQVVLGGT [SMC2]" readout_number=3
biosequence="GHVGSVQISNIPDIGDL [PRP8]" readout_number=2.95
biosequence="TKIGAKRIHSVRTRGGN [RPS8A]" readout_number=3.05
biosequence="PQALRVLRLKPGRKYTT [RPL16A]" readout_number=3.05

###

# METHOD_NOTES: protein stability index of a GFP-peptide fusion (yeast GPS) (PSI 1-4); higher = more stable; sorted into four equal gates, so the index is relative within each strain
# TEST_CONDITIONS: san1∆
As shown below, each of these sequences has a reported protein stability index value.
READOUT_TYPE: protein stability index

biosequence="PYGSFHQQQLQQPHYIQ [DSN1]" readout_number=2.92
biosequence="VSPNISSASPSALTSPT [SIR3]" readout_number=2.95
biosequence="ERLKVPILVTLVSDSEI [POP6]" readout_number=1.58
biosequence="PKKALKVKAGVRSANED [RRP43]" readout_number=2.81
biosequence="AHELQSEDVSRDHEKDT [YIL149C/MLP2]" readout_number=2.8
biosequence="NLEESSKLDIYTQQQAL [RET1]" readout_number=2.47
biosequence="DKKSCSVDDVLSALDHI [DPB4]" readout_number=3.31
biosequence="AKAGLTFPVGRVHRLLR [HTA1]" readout_number=2.01
biosequence="TVTLNKNREVVQVSKAG [RRP45]" readout_number=2.76
biosequence="VRKAITVLFFIGVRCYE [FAS1]" readout_number=2.49
biosequence="PYCPIASITGTGSNDRC [YMR129W/POM152]" readout_number=1.56

###

# METHOD_NOTES: protein stability index of a GFP-peptide fusion (yeast GPS) (PSI 1-4); higher = more stable; sorted into four equal gates, so the index is relative within each strain
# TEST_CONDITIONS: san1∆
READOUT_TYPE: protein stability index

biosequence="VKKTGENEISSLLAMHK [CDC53]" readout_type="protein stability index" readout_number=2.05
biosequence="MEKESVYNLALKCAERQ [NUT1]" readout_type="protein stability index" readout_number=2.91
biosequence="ANVDQISFLEPINLKFL [YMR129W/POM152]" readout_type="protein stability index" readout_number=2.92
biosequence="RCFSCGKVVGDKWESYL [RPB10]" readout_type="protein stability index" readout_number=1.98
biosequence="IEEKLSSFSKKTLTEEV [YIL149C/MLP2]" readout_type="protein stability index" readout_number=3.03
biosequence="QNSSKIVNVLSKCLNLI [SWI3]" readout_type="protein stability index" readout_number=1.96
biosequence="IISTAIADSTHVKRITK [ECM29]" readout_type="protein stability index" readout_number=2.6
biosequence="LLMRLEGNYRNLNNLKQ [RPB8]" readout_type="protein stability index" readout_number=3.22
biosequence="LQRQQRKSKLNLDNLQK [POP4]" readout_type="protein stability index" readout_number=3.09
biosequence="YPFDKLESWWLVLGEVS [BRR2]" readout_type="protein stability index" readout_number=3.46
biosequence="PEDPYFNTLVRIMSTRC [DIS3]" readout_type="protein stability index" readout_number=2.56
biosequence="LNAELESKLIPQENDLE [SMC3]" readout_type="protein stability index" readout_number=3.23
biosequence="IGKDTFVTRKSRKRAKK [PRP8]" readout_type="protein stability index" readout_number=2.87
biosequence="EIPTQIYRTTRQDGSYT [ARP9]" readout_type="protein stability index" readout_number=2.93
biosequence="VQHDQILVMETSEEQTK [SWP82]" readout_type="protein stability index" readout_number=2.94
biosequence="KWEQTYKKPTGGIVTVR [FAS1]" readout_type="protein stability index" readout_number=2.2
biosequence="RTNNVPMIKAEETPSKT [NUT1]" readout_type="protein stability index" readout_number=2.43
biosequence="GQEYPRIIGLSATLPNY [BRR2]" readout_type="protein stability index" readout_number=1.96
biosequence="QIKTLPEQYSDILLNER [AAR2]" readout_type="protein stability index" readout_number=3.14
biosequence="LVSRGGCGNTQPTIRKD [RPO21]" readout_type="protein stability index" readout_number=2.83
biosequence="GPSIYKTDPAGYYVGYK [SCL1]" readout_type="protein stability index" readout_number=3.33
biosequence="KKRREYFPEGYNNKVGV [SIR2]" readout_type="protein stability index" readout_number=2.54
biosequence="SFIFQYYGLVIDLLLLG [PRP8]" readout_type="protein stability index" readout_number=1.15
biosequence="PDKLLGVILMFAAILVL [COB]" readout_type="protein stability index" readout_number=1.66
biosequence="SSKKVFSSNLSYANHLE [YOR098C/NUP1]" readout_type="protein stability index" readout_number=2.1
biosequence="DVEENRSEFIESLLNWI [YJR042W/NUP85]" readout_type="protein stability index" readout_number=3.35
biosequence="MSLVVQEQGSFQHILRL [RPS18A]" readout_type="protein stability index" readout_number=2.65
biosequence="TVSILQESSSLRLLEVT [POP8]" readout_type="protein stability index" readout_number=2.4
biosequence="MAHRVKVIPYSTFRLNL [RPO21]" readout_type="protein stability index" readout_number=1.2
biosequence="TKNGTPNPNNMKTVQSP [GAL11]" readout_type="protein stability index" readout_number=2.77
biosequence="KLHEFYLLISKENKKRK [IRR1]" readout_type="protein stability index" readout_number=2.89
biosequence="IRVAETRGGASALIENN [YJL039C/NUP192]" readout_type="protein stability index" readout_number=3.1
biosequence="LCHPKKEKYGLAVSTIL [SMC1]" readout_type="protein stability index" readout_number=2.23
biosequence="ELEEQESESERKYDLFQ [SMC2]" readout_type="protein stability index" readout_number=3.31

###

# METHOD_NOTES: protein stability index of a GFP-peptide fusion (yeast GPS) (PSI 1-4); higher = more stable; sorted into four equal gates, so the index is relative within each strain
# TEST_CONDITIONS: ubr1∆
Assign class by protein stability index: not lower than 3 means y; lower than 3 means n.

biosequence="NEKLECISLGSTKLSRP [ITC1]" cat=n
biosequence="AKTLIPSLNNKISDDEL [RPB4]" cat=y
biosequence="IILPLDNATLTELVDKA [SSN2]" cat=n
biosequence="EDCVEEFFHLQHYLDTA [QCR6]" cat=y
biosequence="LREVVELPLLSPERFAT [RPT1]" cat=n
biosequence="KILVLTGAGVSTSLGIP [SIR2]" cat=n
biosequence="WQYIVIDEAHRIKNEQS [ISW2]" cat=n
biosequence="PLDRLENVLAIGIAGAH [SKI6]" cat=n
biosequence="SAARGLSLVYEIGGSDL [ECM29]" cat=n
biosequence="TKSHNTVQSWLCDLFVN [NUT1]" cat=n
biosequence="CAACHSLDRVAWRTLVG [CYT1]" cat=n
biosequence="ESVELPLTHPELYEEMG [RPT2]" cat=n
biosequence="TSIEKSSEILSYLSNSL [YML103C/NUP188]" cat=n
biosequence="EDSENPSDWQRNSFIRD [ITC1]" cat=y
biosequence="IAAKTHILRISFLDRKR [SIN4]" cat=n
biosequence="ENSTSNSKPEKSSDSND [YLR335W/NUP2]" cat=y
biosequence="GFEQVKIALGSPIVNVL [RRI2]" cat=n
biosequence="QEQVQDYVNKTNSHLPA [FAS1]" cat=n
biosequence="ELLDFLTSNLSNYSRTM [YJL039C/NUP192]" cat=n
biosequence="VTGASQFQRLAPSLTVP [PRE2]" cat=n
biosequence="KILRDNIQGITKPAIRR [HHF1]" cat=y
biosequence="MEMIENRTMDGKPVSLP [FAS1]" cat=y
biosequence="DSESDSDSETNHKSKDN [SKP1]" cat=y
biosequence="LQMRLKESEISHNENKM [YIL149C/MLP2]" cat=y
biosequence="MTPVIEKIAAGYMQKPV [PRP28]" cat=n
biosequence="PELNVSLNLTDDVISNA [MCD1]" cat=y
biosequence="TYVEELFPIVKKHGKTD [YJL039C/NUP192]" cat=y
biosequence="ALLIEVFTALLRLFINE [ITC1]" cat=n
biosequence="TLELESFLEGSKALNSI [RGR1]" cat=n
biosequence="VGKQIVNIPSFMVRLDS [RPS9A]" cat=n
biosequence="VSISTSVKPHVVEPEHM [SIR4]" cat=n
biosequence="EPYARVSGDLNPIHVSR [FAS1]" cat=n
biosequence="STCIVSLIRNNLHAEGW [ECM29]" cat=n
biosequence="DFNQAFEGTDDNEEASV [BRN1]" cat=y
biosequence="EARINELLSSLEGKGSL [RPP2B]" cat=y
biosequence="SLQRSKSSFVKESAVIS [SMC1]" cat=n
biosequence="IREIDVAGGKKALAIFV [RPS7A]" cat=n
biosequence="LVKDRKFLREVFVDGEA [RPO21]" cat=n
biosequence="NNNNTNTQPSASGFGFG [YGR119C/NUP57]" cat=n
biosequence="RKEPPATVEECVKLTVR [PRE6]" cat=n
biosequence="PSRRERRREQTTYSVDD [ISW2]" cat=n
biosequence="CWAVRADVHFLDCDGGF [RRP45]" cat=n
biosequence="SLDLNNLELGGLNMDFL [PGD1]" cat=n
biosequence="AIIVAGVQSNGDQFLRY [PRE4]" cat=n
biosequence="YYQRLRHMVDDKIHARA [RPB2]" cat=n
biosequence="VRVQRQKKILSIRLKVP [RPL8A]" cat=n
biosequence="KQTGRDQMVVGWYHSHP [RPN11]" cat=n

Reference source for all entries: the supplement of paper PMC9732359
